- target-under-test: adenosine A1 receptor (Homo sapiens)
- Construct: expressed in transfected cells; host or cells: CHO (Chinese Hamster Ovary)
- Sequence (P30542 whole entry): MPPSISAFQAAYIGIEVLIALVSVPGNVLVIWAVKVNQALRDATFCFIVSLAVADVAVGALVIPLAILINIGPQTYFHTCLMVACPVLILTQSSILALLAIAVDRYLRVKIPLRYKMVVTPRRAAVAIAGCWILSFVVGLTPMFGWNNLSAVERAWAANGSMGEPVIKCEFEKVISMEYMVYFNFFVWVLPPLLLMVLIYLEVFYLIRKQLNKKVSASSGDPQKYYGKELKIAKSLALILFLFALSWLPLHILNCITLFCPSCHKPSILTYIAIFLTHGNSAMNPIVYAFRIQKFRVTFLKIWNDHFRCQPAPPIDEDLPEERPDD
- experiment: Indirect determination of adenosine agonism by way of gene expression (luciferase, CHO cells), A1
- Assay type: cell-based
- assay-setup: CHO cells stably transfected with A1 receptor cDNA; 1 μM forskolin; 50% inhibition of luciferase answer
recorded-endpoint: EC50 (nM)

> print(dat)
                                   compound                     target.under.test  unit.of.measurement  observed.result
1  C[C@H](O)COc1ccc(-c2c(C#N)c(N)nc(SCc3coc(-c4ccc(Cl)cc4)n3)c2C#N)cc1  adenosine A1 receptor (Homo sapiens)                   nM              0.3
2  N#Cc1c(NCCO)nc(SCc2coc(-c3ccc(Cl)cc3)n2)c(C#N)c1-c1ccc(OCCO)cc1  adenosine A1 receptor (Homo sapiens)                   nM              0.2
3  N#Cc1c(N)nc(SCc2coc(-c3ccc(F)cc3)n2)c(C#N)c1-c1ccc(OC[C@@H](O)CO)cc1  adenosine A1 receptor (Homo sapiens)                   nM              0.3
4  N#Cc1c(NCCO)nc(OCc2coc(-c3ccc(Cl)cc3)n2)c(C#N)c1-c1ccc(OCCO)cc1  adenosine A1 receptor (Homo sapiens)                   nM              0.4
5  Cc1oc(-c2ccc(F)cc2)nc1CSc1nc(N)c(C#N)c(-c2ccc(OC[C@@H](O)CO)cc2)c1C#N  adenosine A1 receptor (Homo sapiens)                   nM              0.4
6  N#Cc1c(SCc2coc(-c3ccc(Cl)cc3)n2)nc(N2CCC2)c(C#N)c1-c1ccc(OCCO)cc1  adenosine A1 receptor (Homo sapiens)                   nM              0.5
7  N#Cc1c(SCc2coc(-c3ccc(Cl)cc3)n2)nc(N2CCCC2)c(C#N)c1-c1ccc(OCCO)cc1  adenosine A1 receptor (Homo sapiens)                   nM              0.4
